Attribute: protein stability index
B1: EPB41L3 (parent)
chain: SELGDYDPDECGSDYISEFRFAPN

Variants of: B1
Assay: protein stability index of a GFP-peptide fusion (GPS, HEK-293T) (PSI 1-6); higher = more stable;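 also: lentivirally expressed fusions sorted by FACS into six bins by GFP to DsRed ratio, PSI derived from sequencing read proportions per bin multiplied by bin number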
Settings: c terminus: a fixed tail appended

Here are 4 variants together with their reported answers.
I16P = 3.7
A22W = 3.47
G4L = 2
I16H = 4.14

Determine from records and report protein stability index for Y15E 4.13

Determine from records and report protein stability index for E18L 2.45

Determine from records and report protein stability index for I16T 3.8

Determine from records and report protein stability index for P23E 4.66

Determine from records and report protein stability index for R20K 4.53

Determine from records and report protein stability index for G12C 1.55

Determine from records and report protein stability index for D5N 1.99

Determine from records and report protein stability index for E2C 2.19
